targetOrSystem: RSK2 (Homo sapiens)
Sequence (P51812 whole entry): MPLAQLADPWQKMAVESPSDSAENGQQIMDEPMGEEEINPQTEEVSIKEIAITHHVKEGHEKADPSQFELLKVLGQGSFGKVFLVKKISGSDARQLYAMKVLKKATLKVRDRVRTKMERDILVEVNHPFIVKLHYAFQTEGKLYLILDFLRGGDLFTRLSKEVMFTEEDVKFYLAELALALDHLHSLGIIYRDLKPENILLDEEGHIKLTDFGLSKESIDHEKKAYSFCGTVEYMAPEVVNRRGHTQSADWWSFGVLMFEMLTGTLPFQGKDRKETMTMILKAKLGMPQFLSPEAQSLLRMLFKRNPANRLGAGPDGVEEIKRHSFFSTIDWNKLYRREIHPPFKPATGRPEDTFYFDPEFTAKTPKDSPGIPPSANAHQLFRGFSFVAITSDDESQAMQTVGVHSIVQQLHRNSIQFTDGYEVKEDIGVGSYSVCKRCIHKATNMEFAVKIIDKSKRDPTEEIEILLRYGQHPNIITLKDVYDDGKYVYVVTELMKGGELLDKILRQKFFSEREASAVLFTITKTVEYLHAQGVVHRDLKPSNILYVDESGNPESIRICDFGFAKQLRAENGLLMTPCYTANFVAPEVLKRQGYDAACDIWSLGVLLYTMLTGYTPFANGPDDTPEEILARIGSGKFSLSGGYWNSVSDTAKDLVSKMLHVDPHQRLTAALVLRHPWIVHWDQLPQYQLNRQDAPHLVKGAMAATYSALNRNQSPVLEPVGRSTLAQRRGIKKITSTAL
measuredEndpoint: IC50

stdin: What value of measured IC50 is listed for "Cc1cc(Nc2ncc(Cl)c(Nc3ccccc3S(=O)(=O)C(C)C)n2)c(OC(C)C)cc1C1CCNCC1" ?
stdout: 0.418 µM

----------
targetOrSystem: CAMKK2 (Homo sapiens, UniProt Q96RR4)
Sequence (Q96RR4 2-588): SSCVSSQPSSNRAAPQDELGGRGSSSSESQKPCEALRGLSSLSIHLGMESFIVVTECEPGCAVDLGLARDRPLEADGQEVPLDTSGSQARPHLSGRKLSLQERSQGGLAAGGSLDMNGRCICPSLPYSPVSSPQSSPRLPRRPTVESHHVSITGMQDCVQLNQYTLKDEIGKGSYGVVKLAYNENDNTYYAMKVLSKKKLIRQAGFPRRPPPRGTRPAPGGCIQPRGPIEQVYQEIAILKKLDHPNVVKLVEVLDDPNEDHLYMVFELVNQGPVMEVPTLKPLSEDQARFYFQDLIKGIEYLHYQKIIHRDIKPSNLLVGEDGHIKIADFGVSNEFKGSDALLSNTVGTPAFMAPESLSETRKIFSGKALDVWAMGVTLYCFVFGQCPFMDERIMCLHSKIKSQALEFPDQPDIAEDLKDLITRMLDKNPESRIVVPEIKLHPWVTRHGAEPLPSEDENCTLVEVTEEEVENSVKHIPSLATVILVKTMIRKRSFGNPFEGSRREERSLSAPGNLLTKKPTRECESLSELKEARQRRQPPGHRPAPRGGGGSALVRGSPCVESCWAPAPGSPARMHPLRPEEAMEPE
measuredEndpoint: IC50
# output: number + unit

stdin: What value of measured IC50 is listed for "Cc1cc(Nc2ncc(Cl)c(Nc3ccccc3S(=O)(=O)C(C)C)n2)c(OC(C)C)cc1C1CCNCC1" ?
stdout: 75.3 nM

----------
targetOrSystem: FER (Homo sapiens, UniProt P16591)
Sequence (P16591 whole entry): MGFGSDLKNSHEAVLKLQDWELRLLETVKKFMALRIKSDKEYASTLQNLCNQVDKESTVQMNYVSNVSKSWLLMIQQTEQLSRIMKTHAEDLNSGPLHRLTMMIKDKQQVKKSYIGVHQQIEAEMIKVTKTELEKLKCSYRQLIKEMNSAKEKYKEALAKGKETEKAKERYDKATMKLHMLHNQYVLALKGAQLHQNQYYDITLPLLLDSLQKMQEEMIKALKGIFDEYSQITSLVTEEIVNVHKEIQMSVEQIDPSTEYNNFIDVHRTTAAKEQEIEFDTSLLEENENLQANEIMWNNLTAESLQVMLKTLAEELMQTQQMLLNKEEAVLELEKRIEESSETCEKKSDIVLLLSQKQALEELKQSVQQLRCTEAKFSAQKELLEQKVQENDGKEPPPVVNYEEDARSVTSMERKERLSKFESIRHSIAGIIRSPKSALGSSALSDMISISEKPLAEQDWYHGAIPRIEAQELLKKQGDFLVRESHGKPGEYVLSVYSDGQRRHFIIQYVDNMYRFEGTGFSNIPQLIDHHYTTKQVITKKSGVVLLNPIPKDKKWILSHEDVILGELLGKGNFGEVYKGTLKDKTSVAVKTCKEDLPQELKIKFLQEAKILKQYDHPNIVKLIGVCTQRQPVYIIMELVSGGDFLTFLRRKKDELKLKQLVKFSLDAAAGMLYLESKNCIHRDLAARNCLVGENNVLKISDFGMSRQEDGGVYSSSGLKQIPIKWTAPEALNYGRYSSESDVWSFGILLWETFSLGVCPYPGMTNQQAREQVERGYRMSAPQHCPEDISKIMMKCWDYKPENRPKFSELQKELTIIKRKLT
measuredEndpoint: pIC50
Just the number, please; pIC50 means minus log10 of the concentration in mol/L.

stdin: What value of measured pIC50 is listed for Cc1cc(Nc2ncc(Cl)c(Nc3ccccc3S(=O)(=O)C(C)C)n2)c(OC(C)C)cc1C1CCNCC1 [ceritinib] ?
stdout: 7.93

----------
targetOrSystem: AMPK
experimentalProtocol: in vitro kinase assay
settings: read-out: Ceritinib
measuredEndpoint: IC50 (nM)
I only need the number, in nM, no unit after it.

stdin: What value of measured IC50 is listed for "Cc1cc(Nc2ncc(Cl)c(Nc3ccccc3S(=O)(=O)C(C)C)n2)c(OC(C)C)cc1C1CCNCC1" ?
stdout: 2360

----------
targetOrSystem: RSK1 (Homo sapiens, UniProt Q15418)
Sequence (Q15418 whole entry): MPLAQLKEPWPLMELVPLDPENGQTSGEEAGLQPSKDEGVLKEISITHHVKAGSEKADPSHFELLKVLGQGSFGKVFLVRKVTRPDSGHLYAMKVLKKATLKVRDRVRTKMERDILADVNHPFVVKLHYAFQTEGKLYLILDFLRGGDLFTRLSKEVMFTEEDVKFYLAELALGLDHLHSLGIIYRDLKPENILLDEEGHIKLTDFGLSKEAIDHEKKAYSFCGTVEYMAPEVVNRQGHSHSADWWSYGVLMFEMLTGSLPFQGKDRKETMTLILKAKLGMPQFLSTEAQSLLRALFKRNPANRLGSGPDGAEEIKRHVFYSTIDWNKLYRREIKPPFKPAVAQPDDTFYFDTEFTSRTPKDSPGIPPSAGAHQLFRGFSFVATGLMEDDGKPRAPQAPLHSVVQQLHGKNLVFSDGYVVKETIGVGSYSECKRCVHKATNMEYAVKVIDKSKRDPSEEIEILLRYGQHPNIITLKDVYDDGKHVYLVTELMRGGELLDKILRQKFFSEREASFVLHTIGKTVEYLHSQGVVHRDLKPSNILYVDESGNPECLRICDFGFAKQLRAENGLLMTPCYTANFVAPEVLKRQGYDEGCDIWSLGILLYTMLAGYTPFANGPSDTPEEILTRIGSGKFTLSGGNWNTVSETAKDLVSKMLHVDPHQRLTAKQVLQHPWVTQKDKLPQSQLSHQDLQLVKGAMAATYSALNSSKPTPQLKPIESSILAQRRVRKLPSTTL
measuredEndpoint: IC50 (nM)
I only need the number, in nM, no unit after it.

stdin: What value of measured IC50 is listed for "Cc1cc(Nc2ncc(Cl)c(Nc3ccccc3S(=O)(=O)C(C)C)n2)c(OC(C)C)cc1C1CCNCC1" ?
stdout: 966

Provenance of the data: paper PMC5752595
